# Measured on: T1, recombinant hAng-2 (recombinant protein with His tag attached to human Ang-2; R&D Systems) (human, UniProt O15123 19-496)
# T1 construct: also called angiopoietin-2; ANGPT2
# T1 sequence (looked up): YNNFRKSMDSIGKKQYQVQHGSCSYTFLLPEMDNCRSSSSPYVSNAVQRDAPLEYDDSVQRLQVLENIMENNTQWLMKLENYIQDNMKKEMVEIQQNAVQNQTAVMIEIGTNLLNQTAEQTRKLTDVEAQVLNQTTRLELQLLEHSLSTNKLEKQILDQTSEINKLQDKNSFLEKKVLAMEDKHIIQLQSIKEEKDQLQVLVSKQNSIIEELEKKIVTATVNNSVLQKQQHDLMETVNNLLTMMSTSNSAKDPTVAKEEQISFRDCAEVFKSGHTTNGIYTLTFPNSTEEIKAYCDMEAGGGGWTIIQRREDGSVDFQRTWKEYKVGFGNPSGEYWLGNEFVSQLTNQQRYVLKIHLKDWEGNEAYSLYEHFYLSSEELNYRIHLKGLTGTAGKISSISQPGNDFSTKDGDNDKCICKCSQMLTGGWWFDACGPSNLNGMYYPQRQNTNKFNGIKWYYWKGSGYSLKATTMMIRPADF
# Run description: competitive ELISA; synergibody titrated with 1 nM hAng-2 (His) on coated hTie2-Fc
Measured metric: IC50 (nM)
Give just the numeric value; nM need not be written.

Binder: Syn-Ang-VEGFR-14 (other, Chimeric (human IgG1) SAITAng-2-3 with the peptide at the C-terminus of the heavy chain; also called SAITAng-2-3 x DTN10VEGFR-2-4; not shown: human IgG1 heavy chain constant region with Fc region, from the vector; human light chain constant region, printed as 'constant region of human IgG1') heavy (part 1 of 2): DVQLVESGGGLVQPGGSRKLSCAASGFTFSSFGMHWVRQAPEKGLEWVAYISSDSSTIYYADTVKGRFTISRDNPKNTLFLQMTSLRSEDTAMYYCAREGGYDDYYAMDYWGQGTSVTVSS heavy (part 2 of 2): TGSGRMCDGSGPPTNCWFT light: DIQMTQSPASQSASLGESVTITCLASQTIGTWLAWYQQKPGKSPQLLIYAATSLADGVPSRFSGSGSGTKFSFKISSLQAEDFVSYYCQQLYSIPLTFGGGTKLEIK
Unit symbol: nM
IC50: 0.887

API: the following record is the query input.
Recorded result, Syn-Ang-VEGFR-9 (other, Chimeric (human IgG1) SAITAng-2-2 with the peptide at the C-terminus of the heavy chain; also called SAITAng-2-2 x DTN10VEGFR-2-4; not shown: human IgG1 heavy chain constant region with Fc region, from the vector; human light chain constant region, printed as 'constant region of human IgG1') heavy (part 1 of 2): QVQLQQSGPELVKPGASVKMSCKASGYTFTDYVISWVKQRTGQGLEWIGEIYPGSGSTYYNEKFKGKASLTADKSSNTAYMQLSSLTSADSAVYFCVRSRGDYYAMDYWGQGTSVTVSS heavy (part 2 of 2): TGSGRMCDGSGPPTNCWFT light: DIQMTQSPSSLSASLGGKVTITCKASQDINNYITWYQHKPGKGPRLLIHYTSTLQPGIPSRFSGSGSGRDYSFSISNLEPEDIATYYCLQYDNLLTFGGGTKLEIK , IC50: 1.95
